Quick reference for self-splicing fitness (ln) among some sequences
Experiment: self-splicing fitness, log relative to wild type (ln ratio); higher = more splicing; Tetrahymena group I intron in knt gene, E. coli kanamycin selection, DiMSum; sequences stand for … in CUCUCU…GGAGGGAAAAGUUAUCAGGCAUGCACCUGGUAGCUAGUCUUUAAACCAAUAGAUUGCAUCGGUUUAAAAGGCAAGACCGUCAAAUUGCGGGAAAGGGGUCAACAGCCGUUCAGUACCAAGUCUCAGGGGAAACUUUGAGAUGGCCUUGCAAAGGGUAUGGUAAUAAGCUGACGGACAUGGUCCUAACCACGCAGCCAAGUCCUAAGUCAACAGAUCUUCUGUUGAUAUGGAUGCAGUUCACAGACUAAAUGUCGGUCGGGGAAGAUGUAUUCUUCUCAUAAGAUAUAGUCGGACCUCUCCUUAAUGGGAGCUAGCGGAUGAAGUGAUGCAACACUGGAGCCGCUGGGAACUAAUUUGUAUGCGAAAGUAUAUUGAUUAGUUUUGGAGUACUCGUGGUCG;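 further: selection with 25 µg/mL kanamycin versus none on LB agar overnight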
Details: 30 °C
Form: value (number only, do not type unit).

INPUT: Look at this sequence and give its reported self-splicing fitness (ln). `GUAUAGCAAUAUUACGAUUU`
OUTPUT: -1.63

====

Assay: self-splicing fitness, log relative to wild type (ln ratio); higher = more splicing; Tetrahymena group I intron in knt gene, E. coli kanamycin selection, DiMSum; sequences stand for … in CUCUCU…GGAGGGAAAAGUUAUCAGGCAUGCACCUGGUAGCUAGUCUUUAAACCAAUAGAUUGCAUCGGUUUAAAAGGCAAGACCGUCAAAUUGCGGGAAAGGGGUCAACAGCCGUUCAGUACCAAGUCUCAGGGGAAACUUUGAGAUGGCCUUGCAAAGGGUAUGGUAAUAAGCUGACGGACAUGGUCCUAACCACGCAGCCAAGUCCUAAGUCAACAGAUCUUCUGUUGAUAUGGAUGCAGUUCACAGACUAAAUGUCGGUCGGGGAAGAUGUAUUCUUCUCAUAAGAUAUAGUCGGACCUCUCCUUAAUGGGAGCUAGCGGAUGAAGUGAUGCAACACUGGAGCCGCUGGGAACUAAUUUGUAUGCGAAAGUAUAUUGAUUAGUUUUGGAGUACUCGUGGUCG
Settings: 30 °C
Outcome Measure: self-splicing fitness (ln)
# output: bare number, no unit

Some sequences with recorded self-splicing fitness (ln):
| Construct Sequence | self-splicing fitness (ln) |
| --- | --- |
| GGUUAGCAAUAUUACGUGCU | -2.76 |
| GAUUAGCAAUAUUACGAGUU | -2.53 |
| GGCCAGCAAUAUUACGUGUC | -3.2 |

INPUT: Query (sequence): `AAUUAGCAAUAUUACGUCGC` ; field requested: self-splicing fitness (ln)
OUTPUT: -3.08

INPUT: Same for `CGCUAGCAAUAUUACGCGUC`
OUTPUT: -3.34

INPUT: Again, but for `CGACAGCAAUAUUACGACUC`
OUTPUT: -2.83

INPUT: Further, for `GCCUAGCAAUAUUACGGUAC` ?
OUTPUT: -2.66

INPUT: Also `GUCAAGCAAUAUUACGACAU` , if possible.
OUTPUT: -1.67

====

Assay: self-splicing fitness, log relative to wild type (ln ratio); higher = more splicing; Tetrahymena group I intron in knt gene, E. coli kanamycin selection, DiMSum; sequences stand for … in CUCUCU…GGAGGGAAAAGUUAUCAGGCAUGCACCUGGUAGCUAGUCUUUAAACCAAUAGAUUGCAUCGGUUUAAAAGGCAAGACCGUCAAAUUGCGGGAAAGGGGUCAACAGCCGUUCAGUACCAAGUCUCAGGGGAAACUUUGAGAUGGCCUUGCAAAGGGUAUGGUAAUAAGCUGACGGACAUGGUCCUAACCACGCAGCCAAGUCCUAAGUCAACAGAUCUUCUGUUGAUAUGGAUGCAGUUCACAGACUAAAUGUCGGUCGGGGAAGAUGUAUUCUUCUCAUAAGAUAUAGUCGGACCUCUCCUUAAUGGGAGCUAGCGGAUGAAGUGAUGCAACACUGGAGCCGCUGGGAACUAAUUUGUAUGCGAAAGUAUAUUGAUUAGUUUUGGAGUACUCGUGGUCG
Details: 30 °C
Outcome Measure: self-splicing fitness (ln)
Give the figure only, with no unit attached.

| Construct Sequence | self-splicing fitness (ln) |
| --- | --- |
| ACAUAGCAAUAUUACGCUGU | -3.64 |
| GCAAAGCAAUAUUACGUUGG | -1.94 |
| GGCAAGCAAUAUUACGCACU | -0.587 |

INPUT: Endpoint output: self-splicing fitness (ln) of `GCGGAGCAAUAUUACGCUUU` . Value?
OUTPUT: -3.1

INPUT: Thanks! And `GCGGAGCAAUAUUACGCGCU` ?
OUTPUT: -1.88

INPUT: How about `UGAAAGCAAUAUUACGUUGU` ?
OUTPUT: -4.1

INPUT: What about `AAACAGCAAUAUUACGUCAA` ?
OUTPUT: -2.45

INPUT: Now consider `GGCUAGCAAUAUUACGCUCU` .
OUTPUT: -2.35

INPUT: Next up: `CCCCAGCAAUAUUACGCGCU`
OUTPUT: -3.31

INPUT: Next sequence up: `AAGGAGCAAUAUUACGACUA`
OUTPUT: -1.51

INPUT: Subsequent entry: `CUAAAGCAAUAUUACGCGGA`
OUTPUT: -3.85

INPUT: Please give the result for `AGUUAGCAAUAUUACGGUCU` too.
OUTPUT: -0.221

INPUT: Please do the same for `AUUAAGCAAUAUUACGUCUG` as well.
OUTPUT: -1.74

====

Assay: self-splicing fitness, log relative to wild type (ln ratio); higher = more splicing; Tetrahymena group I intron in knt gene, E. coli kanamycin selection, DiMSum; sequences stand for … in CUCUCU…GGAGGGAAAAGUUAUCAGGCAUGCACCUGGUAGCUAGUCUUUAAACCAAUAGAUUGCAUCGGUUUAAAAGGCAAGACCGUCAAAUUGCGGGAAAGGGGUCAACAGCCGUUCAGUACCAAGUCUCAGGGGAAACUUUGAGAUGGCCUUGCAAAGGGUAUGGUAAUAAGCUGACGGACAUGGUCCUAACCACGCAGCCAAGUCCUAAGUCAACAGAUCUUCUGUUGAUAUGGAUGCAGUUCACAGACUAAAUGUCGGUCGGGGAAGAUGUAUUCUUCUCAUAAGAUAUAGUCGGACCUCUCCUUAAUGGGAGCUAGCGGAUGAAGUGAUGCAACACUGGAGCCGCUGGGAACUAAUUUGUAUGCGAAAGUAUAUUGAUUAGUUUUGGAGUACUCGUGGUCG
Settings: 37 °C
Threshold rule: self-splicing fitness (ln) greater than or equal to -1 is true (1); below that, false (0).

| Construct Sequence | Label Value |
| --- | --- |
| AAGAAGCAAUAUUACGGGGG | false (0) |
| AUCUAGCAAUAUUACGAGGG | false (0) |
| AUAGAGCAAUAUUACGUCGC | true (1) |

Please look at the following sequence next.
INPUT: Evaluate `CACAAGCAAUAUUACGCCAG` : self-splicing fitness (ln) at minimum -1?
OUTPUT: false (0)

====

Measured self-splicing fitness (ln) values are reported for all entries that follow.
Test: self-splicing fitness, log relative to wild type (ln ratio); higher = more splicing; Tetrahymena group I intron in knt gene, E. coli kanamycin selection, DiMSum; sequences stand for … in CUCUCU…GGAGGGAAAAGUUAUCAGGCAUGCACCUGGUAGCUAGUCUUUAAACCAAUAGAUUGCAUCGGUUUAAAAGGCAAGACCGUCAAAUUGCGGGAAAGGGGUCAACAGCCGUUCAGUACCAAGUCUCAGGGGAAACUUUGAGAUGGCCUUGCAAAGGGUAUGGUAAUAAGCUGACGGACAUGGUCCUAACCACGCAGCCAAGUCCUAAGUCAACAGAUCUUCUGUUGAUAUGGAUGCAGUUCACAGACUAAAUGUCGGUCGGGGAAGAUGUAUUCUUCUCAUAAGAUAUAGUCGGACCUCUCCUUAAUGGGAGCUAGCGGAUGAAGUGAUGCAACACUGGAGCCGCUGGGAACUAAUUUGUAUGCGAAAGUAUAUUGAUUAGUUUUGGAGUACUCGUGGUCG
Conditions: 37 °C

| Construct Sequence | self-splicing fitness (ln) |
| --- | --- |
| UGGAAGCAAUAUUACGACAC | -3.13 |
| ACGGAGCAAUAUUACGUUAU | -2.94 |
| CGGCAGCAAUAUUACGUUAA | -1.1 |
| AAAUAGCAAUAUUACGGUCG | -0.272 |
| ACUAAGCAAUAUUACGGAUA | -2.54 |

INPUT: Which self-splicing fitness (ln) is listed for `UGCCAGCAAUAUUACGCAUG` ?
OUTPUT: -1.43

INPUT: // next record `UCACAGCAAUAUUACGGUAC`
OUTPUT: -2.6

INPUT: Next record, please: `GCCUAGCAAUAUUACGCCGC`
OUTPUT: -1.5

INPUT: How about this sequence: `CGGGAGCAAUAUUACGGGAG`
OUTPUT: -2.44

INPUT: Then this sequence: `UGCAAGCAAUAUUACGAAUG`
OUTPUT: -0.724

INPUT: Another sequence to look at: `ACUAAGCAAUAUUACGGUGU`
OUTPUT: -2.23

INPUT: Another: `UAUGAGCAAUAUUACGGAAG`
OUTPUT: -2.14

INPUT: What do you have for `UCCGAGCAAUAUUACGUGGU` ?
OUTPUT: -2.29

INPUT: Same thing, different sequence: `UUGCAGCAAUAUUACGCCUA`
OUTPUT: 0.346

INPUT: Okay, and `ACAUAGCAAUAUUACGGGCC` ?
OUTPUT: -1.59
